Recorded pIC50, one value per entry.
molecular target: PEP derived from bovine brain (Bos taurus)
Quick note: pIC50 values are minus log10 of concentrations in mol/L.

Request: Form field: reported pIC50 of O=C(C1CCCN1C(=O)OCc1ccccc1)N1CCSC1 (stereo not shown)
Response: 8.34

Request: What pIC50 value was documented for this compound, O=C(C1CSCN1C(=O)OCc1ccccc1)N1CCCC1 (stereo not shown) ?
Response: 6.80

---

Collected IC50 values appear next to each entry.
Target: PEP derived from bovine brain (Bos taurus)
Construct: PEP derived from bovine brain; from tissue; host or cells: bovine brain
Sequence (Q9XTA2 1-710): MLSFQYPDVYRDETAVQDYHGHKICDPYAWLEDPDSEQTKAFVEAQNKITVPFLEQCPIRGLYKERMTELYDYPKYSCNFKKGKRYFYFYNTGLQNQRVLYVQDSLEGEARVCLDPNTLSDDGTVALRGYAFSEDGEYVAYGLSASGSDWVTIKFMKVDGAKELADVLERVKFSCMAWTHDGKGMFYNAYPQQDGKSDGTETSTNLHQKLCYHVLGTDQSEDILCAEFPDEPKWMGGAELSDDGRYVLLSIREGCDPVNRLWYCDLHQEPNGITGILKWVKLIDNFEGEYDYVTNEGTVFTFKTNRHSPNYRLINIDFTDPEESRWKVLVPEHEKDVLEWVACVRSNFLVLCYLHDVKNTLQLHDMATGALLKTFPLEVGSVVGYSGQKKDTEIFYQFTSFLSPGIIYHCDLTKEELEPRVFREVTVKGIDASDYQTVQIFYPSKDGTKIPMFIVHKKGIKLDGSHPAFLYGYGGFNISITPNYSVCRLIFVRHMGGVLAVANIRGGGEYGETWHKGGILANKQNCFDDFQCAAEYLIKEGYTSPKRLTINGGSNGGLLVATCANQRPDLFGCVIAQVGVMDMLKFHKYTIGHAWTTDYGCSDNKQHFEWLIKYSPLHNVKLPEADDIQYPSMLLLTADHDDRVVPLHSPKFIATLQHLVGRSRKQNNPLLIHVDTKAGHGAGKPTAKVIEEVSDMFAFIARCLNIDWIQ
Assay: Measurement of PEP inhibitory action (substrate Z-Gly-Pro-β-naphtyl amide)
Type: biochemical
Details: pH 7.0, 37°C, read-out: PEP Inhibition IC50
Square brackets hold non-standard residues; d marks the D form. Peptide text beside a SMILES is read from it. * marks the point of attachment. Cbz = O=C(OCc1ccccc1)*; Thz = O=C(O)[CH]1CSCN1
// note: answer is a bare numeric in µM

Some entries whose results are on file:
COMPOUND	MEASURE UNIT	IC50
O=CC1CSCN1C(=O)C1CCCN1C(=O)OCc1ccccc1 (stereo not drawn) (Cbz-Pro-[Thz]-aldehyde; configuration not given here)	µM	0.001
O=C(C1CSCN1C(=O)OCc1ccccc1)N1CCOCC1 (centres unmarked)	µM	0.54

Request: Which IC50 value is on record for O=C(C1CSCN1C(=O)OCc1ccccc1)N1CCSC1 (centres unmarked) ?
Response: 0.00014
